tested on: primary human total T-cells; assay: T-cell activation, IL-2 secretion, Biological Example 2; format: cell-based; details: anti-CD3 stimulation alone, 48 hours, 3 μM inhibitor, fold change over baseline
reported.metric: fold induction at 3 µM

Req: Tell me fold induction at 3 µM reported for COCC1COCCN(Cc2cc3c(c(C(F)(F)F)c2)CN(c2cccc([C@]4(Cc5nncn5C)C[C@@H](C#N)C4)c2)C3=O)C1 (stereo partly drawn)
Resp: > 0.85

Req: Please give the documented fold induction at 3 µM of Cn1cnnc1C[C@]1(c2cccc(N3Cc4c(cc(CN5CCC6CCC(C5)O6)cc4C(F)(F)F)C3=O)c2)C[C@H](C#N)C1 (stereo partly drawn)
Resp: 0.4 to 0.85

Req: Provide measured fold induction at 3 µM value, entry: CC1CCN(Cc2cc3c(c(C(F)(F)F)c2)CN(c2cccc([C@]4(Cc5nncn5C)C[C@@H](C#N)C4)c2)C3=O)CC(C)O1 (stereo partly drawn)
Resp: 0.4 to 0.85
